Each item that follows carries a reported pIC50.
system_under_test: HBV core protein (UniProt P03146)
Construct: fused on or other part: BODIPY-FL maleimide label on the C-terminal Cys150
Sequence (P03146 whole entry, looked up, the tested form may be a part): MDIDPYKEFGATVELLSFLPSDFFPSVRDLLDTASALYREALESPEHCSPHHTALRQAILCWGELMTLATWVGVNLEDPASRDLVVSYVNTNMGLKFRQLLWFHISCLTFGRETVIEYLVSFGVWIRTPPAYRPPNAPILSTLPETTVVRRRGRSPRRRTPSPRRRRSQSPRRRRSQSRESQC
method: Biochemical capsid assembly assay (fluorescence quenching)
Design: species or system hepatitis B virus
test_settings: read-out: Assembly Activity (IC50); BODIPY-FL labelled core protein, 300 μM NaCl, read 6 min after start
pIC50: −log10 of the molar value.

{"compound": "O=C(c1cc2ccccc2[nH]1)N1CCc2[nH]nc(C(=O)N3CCCC3)c2C1", "pIC50": "5.00 to 5.30"}
{"compound": "CN(C(=O)c1[nH]nc2c1CN(C(=O)c1cc3ccccc3[nH]1)CC2)C1(c2cocn2)CC1", "pIC50": "> 5.30"}
{"compound": "CN(C(=O)c1n[nH]c2c1CN(C(=O)c1cc3ccccc3[nH]1)CC2)[C@H]1CC[C@@H](O)CC1", "pIC50": "> 4.00"}
{"compound": "COCC1(N(C)C(=O)c2n[nH]c3c2CN(C(=O)c2cc4c(C(F)(F)F)cccc4[nH]2)CC3)CC1", "pIC50": "> 5.30"}
{"compound": "COCC1(N(C)C(=O)c2n[nH]c3c2CN(C(=O)c2cc4c(C(F)F)cc(F)cc4[nH]2)CC3)CC1", "pIC50": "> 5.30"}
{"compound": "O=C(c1cc2c(F)cc(F)cc2[nH]1)N1CCc2[nH]nc(C3CCCO3)c2C1 (stereo not shown)", "pIC50": "> 5.30"}
{"compound": "CC(C)OC(=O)[C@H](C)NP(=O)(OCCON(C)C(=O)c1n[nH]c2c1CN(C(=O)c1cc3c(Cl)cccc3[nH]1)CC2)Oc1ccccc1 (stereo partly shown)", "pIC50": "> 5.30"}
{"compound": "O=C(c1cc2ccccc2[nH]1)N1CCc2[nH]nc(C(=O)N3C[C@@H]4[C@@H](CO)[C@@H]4C3)c2C1", "pIC50": "5.00 to 5.30"}
{"compound": "O=C(c1cc2ccccc2[nH]1)N1CCc2[nH]nc(C(=O)N3CCCCC3)c2C1", "pIC50": "> 5.30"}
{"compound": "CN(c1n[nH]c2c1CN(C(=O)c1cc3ccccc3[nH]1)CC2)S(C)(=O)=O", "pIC50": "> 4.00"}
{"compound": "CCc1cccc2[nH]c(C(=O)N3CCc4[nH]nc(C(=O)N(C)CCO)c4C3)cc12", "pIC50": "> 5.30"}
{"compound": "CN(CC1CCOC1)C(=O)c1n[nH]c2c1CN(C(=O)c1cc3ccccc3[nH]1)CC2 (stereo not shown)", "pIC50": "> 4.00"}
{"compound": "CN(C(=O)c1[nH]nc2c1CN(C(=O)c1cc3c(Cl)cccc3[nH]1)CC2)C1CC1", "pIC50": "> 5.30"}
{"compound": "Cc1cc(F)cc2[nH]c(C(=O)N3CCc4[nH]ncc4C3)cc12", "pIC50": "> 5.30"}
{"compound": "COCC1(N(C)C(=O)c2n[nH]c3c2CN(C(=O)c2cc4c(Cl)cccc4[nH]2)CC3)CC1", "pIC50": "> 5.30"}
{"compound": "NC(=O)c1n[nH]c2c1CN(C(=O)c1cc3ccccc3[nH]1)CC2", "pIC50": "> 4.00"}

Origin of the recorded values: patent US11236087B2
